Test system: 317291-083-R-J1-PDC complex spheroids, viability;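 further: spheroids exposed to compounds for one week before readout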
assay.protocol: Anticancer human tumor 317291-083-R-J1-PDC patient-derived soft tissue sarcoma cell line growth inhibition [GQUAD]
experimental.conditions: curve of first compound; second compound 0.0316 µM
# strict inequality: IC50 < 900 nM yields Fulfilled, everything else yields Not fulfilled

>  <molecule>
CC(C)(O)C1CCC(Nc2ccc3ncc(-c4cccc(C(F)(F)F)c4)n3n2)CC1 (stereo not given) + CN(C)c1ccc(Nc2c3ccc(NC(=O)CCN4CCCC4)cc3nc3cc(NC(=O)CCN4CCCC4)ccc23)cc1

>  <test.system>
317291-083-R-J1-PDC complex spheroids, viability;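 further: spheroids exposed to compounds for one week before readout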

>  <assigned.class>
Fulfilled

$$$$
>  <molecule>
Cc1[nH]c2ccccc2c1CCNCc1ccc(/C=C/C(=O)NO)cc1 + CN(C)c1ccc(Nc2c3ccc(NC(=O)CCN4CCCC4)cc3nc3cc(NC(=O)CCN4CCCC4)ccc23)cc1

>  <test.system>
317291-083-R-J1-PDC complex spheroids, viability;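 further: spheroids exposed to compounds for one week before readout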

>  <assigned.class>
Fulfilled

$$$$

Exercise: Is IC50 of CC(C)n1c(=O)n(C)c2cnc3cc(F)c(-c4ccc(OCCCN5CCCCC5)nc4)cc3c21 + CN(C)c1ccc(Nc2c3ccc(NC(=O)CCN4CCCC4)cc3nc3cc(NC(=O)CCN4CCCC4)ccc23)cc1 strictly below 900 nM?
Solution: Not fulfilled

Exercise: Is IC50 of CC[C@@]1(O)C(=O)OCc2c1cc1n(c2=O)Cc2cc3c(CN(C)C)c(O)ccc3nc2-1 + Cc1[nH]c2ccc(F)cc2c1-c1nc2c3cccnc3c3ncccc3c2[nH]1 strictly below 900 nM?
Solution: Fulfilled

Exercise: Is IC50 of CC(C)n1c(=O)n(C)c2cnc3cc(F)c(-c4ccc(OCCCN5CCCCC5)nc4)cc3c21 + Cc1cnc(CNC(=O)c2c(=O)c3ccc(N4CCCN(C)CC4)nc3n3c2sc2ccccc23)cn1 strictly below 900 nM?
Solution: Fulfilled
